Source: PubChem BioAssay AID1845206

- System: NCI-H1618 multicellular tumor spheroid viability
- testProtocol: Anticancer human tumor NCI-H1618 cell line growth inhibition; active = viability on the fitted dose curve at most 10% of control; inactive = the rest;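 note: spheroids exposed to agents for 7 days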
- experimentalParameters: second compound 100 µM; first compound 0.949 µM
Hi! Could you answer with just one of these? active, inactive

q: Which result was noted for this molecule in the test: CNCc1ccc(-c2cc(-c3nc(-c4ccc(S(=O)(=O)C(C)C)cc4)cnc3N)on2)cc1 + Cn1nnc2c(C(N)=O)ncn2c1=O
a: active

q: Do the same for Cc1sc2c(c1C)C(c1ccc(Cl)cc1)=NC(CC(=O)Nc1ccc(O)cc1)c1nnc(C)n1-2 (centres undefined) + Cn1nnc2c(C(N)=O)ncn2c1=O please
a: active

q: Do the same for Cn1ncnc1[C@H]1c2n[nH]c(=O)c3cc(F)cc(c23)N[C@@H]1c1ccc(F)cc1 + Cn1nnc2c(C(N)=O)ncn2c1=O please
a: active

q: Do the same for O=C(c1cc(Cc2n[nH]c(=O)c3ccccc23)ccc1F)N1CCN(C(=O)C2CC2)CC1 + Cn1nnc2c(C(N)=O)ncn2c1=O please
a: inactive

----------
- System: NCI-H1618 multicellular tumor spheroid viability
- testProtocol: Anticancer human tumor NCI-H1618 cell line growth inhibition;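 note: spheroids exposed to agents for 7 days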
- experimentalParameters: curve of first compound; second compound 31.6 µM
pIC50: −log10 of the molar value.
Items are presented alongside their recorded pIC50.

COc1cc(C)[nH]c(=O)c1CN1CCc2c(Cl)cc(C(OC)C3COC3)c(Cl)c2C1=O (configuration not stated) + Cn1nnc2c(C(N)=O)ncn2c1=O ... > 7.50
CC(C)n1c(=O)n(C)c2cnc3cc(F)c(-c4ccc(OCCCN5CCCCC5)nc4)cc3c21 + Cn1nnc2c(C(N)=O)ncn2c1=O ... > 7.50
Cc1cc(C)c(CNC(=O)c2cc(-c3ccc(CN4CCOCC4)cc3)cc3c2cnn3C2CCCC2)c(=O)[nH]1 + Cn1nnc2c(C(N)=O)ncn2c1=O ... > 7.50
O=C(c1cc(Cc2n[nH]c(=O)c3ccccc23)ccc1F)N1CCN(C(=O)C2CC2)CC1 + Cn1nnc2c(C(N)=O)ncn2c1=O ... > 7.02
Cc1sc2c(c1C)C(c1ccc(Cl)cc1)=NC(CC(=O)Nc1ccc(O)cc1)c1nnc(C)n1-2 (configuration not stated) + Cn1nnc2c(C(N)=O)ncn2c1=O ... > 8.02

q: Looking for the measured pIC50 of CNCc1ccc(-c2cc(-c3nc(-c4ccc(S(=O)(=O)C(C)C)cc4)cnc3N)on2)cc1 + Cn1nnc2c(C(N)=O)ncn2c1=O , can you help?
a: > 8.02

q: Do the same for [2H]c1nc(C)nc([2H])c1-c1cc(NC[C@@H](C)c2cccc3c(C(=O)NC)ccnc23)ncn1 + Cn1nnc2c(C(N)=O)ncn2c1=O please
a: > 7.50

----------
- System: NCI-H1618 multicellular tumor spheroid viability
- testProtocol: Anticancer human tumor NCI-H1618 cell line growth inhibition;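 note: spheroids exposed to agents for 7 days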
- experimentalParameters: second compound 1 µM; first compound 0.316 µM; stronger effect = lower value
Items are presented alongside their recorded viability, T/C.
Number in %, nothing else.

Reference set (3 entries):
COc1ccc([C@@H](O)c2cc(-c3ncnc4cc(N5CCOCC5)ccc34)c(F)cc2Cl)nn1 + Cn1nnc2c(C(N)=O)ncn2c1=O ... 95.2
CC1COCCN1c1cc(-c2ccnn2C)c2ccnc(-c3ccn[nH]3)c2n1 (centres undefined) + Cn1nnc2c(C(N)=O)ncn2c1=O ... 1.49
[2H]c1nc(C)nc([2H])c1-c1cc(NC[C@@H](C)c2cccc3c(C(=O)NC)ccnc23)ncn1 + Cn1nnc2c(C(N)=O)ncn2c1=O ... 85.3

Let us move to another entry and its viability, T/C.
q: Looking for the measured viability, T/C of Cc1cc(C)c(CNC(=O)c2cc(-c3ccc(CN4CCOCC4)cc3)cc3c2cnn3C2CCCC2)c(=O)[nH]1 + Cn1nnc2c(C(N)=O)ncn2c1=O , can you help?
a: 89.8
